Each entry below carries its recorded GI50.
- Test system: EKVX
- protocolSummary: NCI tumour cell line growth inhibition, 48 h
Calls of active or inactive are those of the source. No stated cut-off is given here; in the data, active = GI50 up to about 1.1 µM and inactive = higher.

Illustrative cases are given below, each with its answer.
compound: Cc1cc2nc(N3C(=O)/C(=C/c4ccc(N(C)C)cc4)N=C3c3ccccc3)sc2cc1C
valueReported: 23 µM (inactive)
//
compound: Nc1ccc(-c2nc3ccccc3s2)cc1F
valueReported: 2.59 µM (inactive)
//
compound: COC(=O)c1ccccc1/C=C1\Cc2cc(C)c(C)cc2C1=O
valueReported: > 100 µM (inactive)
//
compound: Cc1cc(=O)c2c(O)cc3c(c2o1)CC=C(COC1OC(COC2OC(CO)C(O)C(O)C2O)C(O)C(O)C1O)CO3 (stereo not given)
valueReported: > 100 µM (inactive)

Challenge: Consider the compound [N-]=[N+]=Nc1c(C=O)c(=O)n2c3c(cccc13)CCC2 and give its measured GI50.
Response given: 11.1 µM (inactive)

* * *

- Test system: U-251
- protocolSummary: NCI tumour cell line growth inhibition, 48 h
Calls of active or inactive are those of the source. Cut-off read from the data, not from the text of the source: active = GI50 up to about 1.1 µM and inactive = higher.
Outcome (select one): T = active, F = inactive

Check out these entries, answers already filled in.
compound: Nc1nnc(N)n1NC(=O)C(=O)Nc1ccc([N+](=O)[O-])cc1
labelValue: F
//
compound: COc1cc(OCc2ccc3nc(-c4ccccc4)c(Cl)nc3c2)cc(OC)c1OC
labelValue: F
//
compound: CCOC(=O)CC1Nc2ccccc2C12CCc1c([nH]c3ccccc13)C2C(=O)OCC (stereo not drawn)
labelValue: F

Challenge: What classification did CC(=O)OCC(OC(C)=O)C1C[C@H]2O[C@@H]3[C@H](C[C@H]2O1)O[C@@]1(C[C@@H]3C)C[C@H](C)[C@@H]2O[C@]3(C[C@@H]2O1)C[C@H]1O[C@H]2[C@H](C)[C@H]4OC(=O)C[C@H]5CC[C@@H]6OC7[C@H]8O[C@]9(CC[C@H]%10CC(=O)[C@H](CC[C@H]%11C[C@@H](C)C(=O)C(C[C@@H]4O[C@H]2C[C@H]1O3)O%11)O%10)CC8O[C@@H]7[C@@H](O9)[C@H]6O5 (stereo partly drawn) end up with in this test?
Response given: T

Challenge: What classification did NC[C@H]1Nc2ccccc2[C@@H](O)C1O (stereo partly drawn) end up with in this test?
Response given: F

Challenge: What classification did Cc1cc2nc3c(C#N)c(-c4ccccc4)cc(Nc4ccc(F)cc4)n3c2cc1C end up with in this test?
Response given: F

Challenge: What classification did CC1=CCCC(C)(O)C2CC(CCC3(C)OC3CC1)C(C)C(=O)O2 (stereo not drawn) end up with in this test?
Response given: F

Challenge: What classification did COc1ccc(-c2c(N)n(-c3cc(OC)cc(OC)c3)c(=O)c3cc([N+](=O)[O-])ccc23)cc1 end up with in this test?
Response given: F

Challenge: What classification did Cc1c(Cc2ccccc2)n(C(C)OCCN(OC(=O)Oc2ccccc2)C(=O)Oc2ccccc2)c(=O)[nH]c1=O (stereo not drawn) end up with in this test?
Response given: F

Challenge: What classification did COC(=O)Nc1nc2cc(NS(=O)(=O)c3ccc(F)cc3)ccc2[nH]1 end up with in this test?
Response given: F

Challenge: What classification did COc1cccc(-c2cc(O)c3c(C)ccnc3n2)c1 end up with in this test?
Response given: T

Challenge: What classification did CCCC12Cc3c(OC)ccc(OC)c3CC(Cc3c(OC)ccc(OC)c31)C2=O (stereo not drawn) end up with in this test?
Response given: F

Challenge: What classification did CC(C)c1ccc(C2C3=C(N=C4SCC(=O)N42)C(=O)c2ccccc23)cc1 (stereo not drawn) end up with in this test?
Response given: F

Challenge: What classification did CCC1(COC(NC(=O)c2ccccc2)(C(F)(F)F)C(F)(F)F)COC1 end up with in this test?
Response given: F

Challenge: What classification did C=C/C(C)=C/[C@H](C)C(=O)C[C@H](O)CC1CC(=O)NC(=O)C1 end up with in this test?
Response given: F

Challenge: What classification did CCCCOC(=O)NC(=O)c1cn(CCCOC(=O)CCCCCCCCC(=O)OCCCn2cc(C(=O)NC(=O)OCCCC)c(=O)[nH]c2=O)c(=O)[nH]c1=O end up with in this test?
Response given: F

Challenge: What classification did CC1(C)CC(=O)C/C(=N/c2ccc([N+](=O)[O-])cc2)C1 end up with in this test?
Response given: F

Challenge: What classification did CC(C)Cn1cnc2c(NCC(C)O)nc3ccccc3c21 (stereo not drawn) end up with in this test?
Response given: F

Challenge: What classification did COc1cc(/C=C2\NC(=O)C(Cc3cc(OC)c(OC)c(C)c3OC)N(C(C)=O)C2=O)c(OC)c(C)c1OC (stereo not drawn) end up with in this test?
Response given: F
